# protocolSummary: NCI Yeast Anticancer Drug Screen. Data for the sgs1 mgt1 strain (AID 161);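 note: 0% = growth of cultures given vehicle only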
# testParameters: S. cerevisiae sgs1 mgt1 strain, at 50.0 µM, hits give high values
Compounds without any hit were thinned out: in the full panel of roughly 79,000, 15% have a hit. Calls of active or inactive are those of the source. Cut-off read from the data, not from the text of the source: active = growth inhibition above about 70%; inactive = the rest.
Recorded measurements of growth inhibition, one per entry

See these solved cases before continuing.
>>> df
                                   compound     measuredresult
0                    CCCCOC(=O)C1=NNC(=O)C1  -11.9% (inactive)
1  Cc1[nH]c(=O)nc(CC(O)(c2ccccc2)c2ccccc2)c1-c1ccccc1    -22% (inactive)
2                 COc1ccc(-c2csc(N)n2)cc1OC    4.4% (inactive)

Query compound follows.
GET /value?item= CC(=O)Nc1cccc2c1C(=O)c1c(c(O)c3ccccc3c1O)C2=O &field=growth inhibition returns -12.8% (inactive)

====

# protocolSummary: NCI Yeast Anticancer Drug Screen. Data for the sgs1 mgt1 strain (AID 161);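 note: 0% = growth of cultures given vehicle only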
# testParameters: S. cerevisiae sgs1 mgt1 strain, at 50.0 µM, hits give high values
About 79,000 compounds went through this panel and 15% of them were active in at least one assay; those are over-represented in the sample as a whole.
endpointLabel: growth inhibition (%)
Please respond with the number in % and leave the unit unwritten.

In [3]: df
Out[3]:
                                   compound      endpointlabel  measuredresult
0  COc1cc(OC)c(C2CC(C)(O)Oc3cc4c(cc32)OCO4)c(OC)c1 (stereo not drawn)  growth inhibition            26.9
1  COc1cc(C2C(Cl)C(=O)N2NC(=O)c2ccc(NC(C)=O)cc2)cc(Br)c1O (stereo not drawn)  growth inhibition            -9.6
2  COc1cc(OC)c(/C=C2\N=C(C)N(Nc3nnc(NN4C(=O)/C(=C/c5c(OC)cc(OC)cc5OC)N=C4C)c4ccccc34)C2=O)c(OC)c1  growth inhibition           -12.8
3  O=C(c1ccc(Cl)c(Cl)c1)n1c2ccccc2c2ccccc21  growth inhibition           -12.3
4  O=c1[nH]cnc2nc(-c3cccc([N+](=O)[O-])c3)[nH]c12  growth inhibition            12.9
5  COc1ccc(C[C@@H]2Cc3cc(OC)c(OC)cc3CN2C)cc1  growth inhibition            19.6

GET /value?item= O/C=C(\Cl)CCl &field=growth inhibition returns 12.4

====

# protocolSummary: NCI Yeast Anticancer Drug Screen. Data for the rad50 strain (AID 155);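 note: 0% = growth of vehicle-only cultures of the same strain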
# testParameters: S. cerevisiae rad50 strain growth inhibition; at 50.0 µM; hits give high values
# Description: Growth inhibition of yeast strains with defined genetic alterations is measured as a screen for potential anti-cancer activity. Selected strains with alterations in DNA damage repair or cell cycle control were exposed to compounds and growth inhibition was measured relative to vehicle treated controls. The strain used in this assay is rad50
Compounds without any hit were thinned out: in the full panel of roughly 79,000, 15% have a hit.
Recorded measurements of growth inhibition, one per entry
Please respond with the number in % and leave the unit unwritten.

See these solved cases before continuing.
In [3]: df
Out[3]:
                                   compound  measuredresult
0  COC1c2ccccc2C(C)(C)c2nc3ccccc3cc21 (stereo not given)           -1.05
1            O=C(NNC1=NCCCCN1)Nc1ccc(Cl)cc1            20.9
2  CC(C)CC(NC(=O)C(O)C(N)Cc1ccccc1)C(=O)O (stereo not given)            56.5

GET /value?item= CC(CO)CCNc1ncnc2c1ncn2CCC(=O)OC(C)(C)C (stereo not given) &field=growth inhibition returns -27.6

GET /value?item= Cc1ccc(-c2n[nH]c(CC#N)n2)cc1 &field=growth inhibition returns 5.55

GET /value?item= C[C@H]1CCCCC[C@@H]2CC(=O)CC2C(=O)CCC(=O)O1 (stereo not given in full) &field=growth inhibition returns 17.6

GET /value?item= Nc1ccn(C2CC(F)C(CO)O2)c(=O)n1 (stereo not given) &field=growth inhibition returns 19.6

GET /value?item= CCC(C)(NC(N)=O)c1ccccc1 (stereo not given) &field=growth inhibition returns -6.9

GET /value?item= CN=C(NC)c1ccc(Cl)c(Cl)c1 &field=growth inhibition returns 8.1

GET /value?item= CCCOC(=O)Nc1cccc2ccccc12 &field=growth inhibition returns 0.65

GET /value?item= c1ccc(N=C2SC(=NC3CCCCC3)N(C3CCCCC3)C2=Nc2ccccc2)cc1 &field=growth inhibition returns 3.35

====

# protocolSummary: NCI Yeast Anticancer Drug Screen. Data for the mlh1 rad18 strain (AID 175)
# testParameters: S. cerevisiae mlh1 rad18 strain growth inhibition; at 50.0 µM; hits give high values
Compounds without any hit were thinned out: in the full panel of roughly 79,000, 15% have a hit.
Decision: growth inhibition compared against -10%; not below it gives condition met, below it gives condition not met.

Record excerpt, results attached:
>>> df
                   chemicalstring          classname
0     COc1ccc2[nH]c(=O)oc(=O)c2c1      condition met
1         Nc1cc2c3c(cccc3c1)NC2=O  condition not met
2  CCO/C(Cc1ccc(Cl)cc1)=N/NC(N)=S  condition not met

Problem: Could you tell me if the measured growth inhibition of C/C(=N\NC(=O)C(N)=O)c1c(O)cc(C)oc1=O reaches -10% or more?
Result: condition met

Problem: Could you tell me if the measured growth inhibition of C=CCn1c(=O)c(C(=O)Nc2nc(C34CC5CC(CC(C5)C3)C4)cs2)c(O)c2ccccc21 reaches -10% or more?
Result: condition not met

Problem: Could you tell me if the measured growth inhibition of C=CCn1c(NCCN(CC)CC)nc2ccc(Cl)cc2c1=O reaches -10% or more?
Result: condition met

====

# protocolSummary: NCI Yeast Anticancer Drug Screen. Data for the rad50 strain (AID 155);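 note: 0% = growth of vehicle-only cultures of the same strain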
# testParameters: S. cerevisiae rad50 strain growth inhibition; at 50.0 µM; hits give high values
About 79,000 compounds went through this panel and 15% of them were active in at least one assay; those are over-represented in the sample as a whole.
endpointLabel: growth inhibition (%)
Please respond with the number in % and leave the unit unwritten.

>>> df
                          compound  measuredresult
0  O=C(Nc1ccc(Br)cc1)Nc1ccc(Br)cc1           -23.3

GET /value?item= CC(=O)NC1C(O)CC(OCCCSCCN)(C(=O)O)OC1C(O)C(O)CO (centres undefined) &field=growth inhibition returns -6.25

GET /value?item= CCCCCCCCCCCCCCCCCCN(C)CC(COC)OP(=O)([O-])OCC[N+](C)(C)C (centres undefined) &field=growth inhibition returns 22.6

GET /value?item= Cc1c(C(=O)O)n2cnnc2c2ccccc12 &field=growth inhibition returns 22.8

GET /value?item= NC(=O)C(Cc1ccc(O)cc1)NC(=O)c1ccccc1 (centres undefined) &field=growth inhibition returns -8.8

GET /value?item= CCN(CC)c1ccc(N=C2C=CC(=O)C(C)=C2)c(C)c1 &field=growth inhibition returns -3.05

GET /value?item= CN1c2ccc(C3N(C(=O)C(F)(F)F)C=CN3C(=O)C(F)(F)F)cc2Sc2cc(C3N(C(=O)C(F)(F)F)C=CN3C(=O)C(F)(F)F)ccc21 &field=growth inhibition returns -3.65

GET /value?item= CCOc1ccc(/C=C/c2ccc(OCC)cc2)cc1 &field=growth inhibition returns -4.65

====

# protocolSummary: NCI Yeast Anticancer Drug Screen. Data for the mlh1 rad18 strain (AID 175)
# testParameters: S. cerevisiae mlh1 rad18 strain growth inhibition; at 50.0 µM; hits give high values
About 79,000 compounds went through this panel and 15% of them were active in at least one assay; those are over-represented in the sample as a whole.
Recorded measurements of growth inhibition, one per entry
Please respond with the number in % and leave the unit unwritten.

See these solved cases before continuing.
                                   compound      endpointlabel  unitsymbol  measuredresult
0        COn1c(-c2ccccc2)nc2c1C(=O)N(C)CN2C  growth inhibition           %             5.4
1  Cc1ccc(S(=O)(=O)OCC2OCOC2C2OCOC2CI)cc1 (stereo unspecified)  growth inhibition           %            13.2
2  O=C(CN1CCC(O)(c2ccccc2)CC1)N1CCN(/C=C/c2ccccc2)CC1  growth inhibition           %            10.8
3      CC(=O)CC(=O)Nc1cccc(NC(=O)CC(C)=O)c1  growth inhibition           %           -20.6
4                  CCC(=O)/C=C/c1ccc(Cl)cc1  growth inhibition           %            11.3

GET /value?item= C[C@@]12CCC(=O)C=C1CC[C@H]1C2C(=O)C[C@]2(C)C1CC[C@@]2(O)C(=O)COC(=O)CCC(=O)O (stereo partly specified) &field=growth inhibition returns 0.25
